Target: wild type and amino acid substituted PPO enzyme (PPO2) of SEQ ID NO: 2 (AMARE) (Amaranthus tuberculatus, UniProt Q0NZW9, R128I/F420L, form not given)
Type: biochemical, Amaranthus tuberculatum
pIC50: −log10 of the molar value.
Reported pIC50 by item:
readout.label: pIC50

>>> reported_measurement("CS(=O)(=O)NC(=O)c1cc(Oc2ccc(C(F)(F)F)cc2Cl)ccc1[N+](=O)[O-]")
"≤ 5.00"
>>> reported_measurement("O=C(O)c1cc(Oc2ccc(C(F)(F)F)cc2Cl)ccc1[N+](=O)[O-]")
"≤ 5.00"
>>> reported_measurement("C#CCN1C(=O)COc2cc(F)c(N3C(=O)C4=C(CCCC4)C3=O)cc21")
"≤ 5.00"
